Measured values drawn from patent US9133203B2 for this set.

Please go through the items and note down their melting point.

Sample CCC(=O)Nc1nc(N)nc2ccc3[nH]ccc3c12 ; melting point observed: 226 to 228 °C

Sample CC(=O)Nc1nc(N)c2c(ccc3[nH]ccc32)n1 ; melting point observed: 260 to 262 °C

Sample CC(C)(C)[Si](C)(C)OCCCCC(=O)Nc1nc(N)nc2ccc3[nH]ccc3c12 ; melting point observed: 172 to 174 °C

Sample CCCC(=O)Nc1nc(N)c2c(ccc3[nH]ccc32)n1 ; melting point observed: 262 to 264 °C

Sample Nc1nc(N)c2c(ccc3c2ccn3C(=O)c2ccc3ccccc3c2)n1 ; melting point observed: 188 to 190 °C

Sample CC(C)(C)[Si](C)(C)OCCCCC(=O)n1ccc2c3c(N)nc(N)nc3ccc21 ; melting point observed: 173 to 175 °C

Sample CC(=O)n1ccc2c3c(N)nc(N)nc3ccc21 ; melting point observed: 202 to 204 °C

Sample CCCC(=O)n1ccc2c3c(N)nc(N)nc3ccc21 ; melting point observed: 196 to 198 °C

Sample CC(C)C(=O)Nc1nc(N)c2c(ccc3[nH]ccc32)n1 ; melting point observed: 288 to 290 °C

Sample CC(C)C(=O)n1ccc2c3c(N)nc(N)nc3ccc21 ; melting point observed: 200 to 202 °C

Sample CC(C)(C)[Si](C)(C)OCCCCC(=O)Nc1nc(N)c2c(ccc3[nH]ccc32)n1 ; melting point observed: 140 to 142 °C
